# System Name: TLR5 of the cell-based reporter assays
# Test Details: cell-based or functional assay
Reported Property: Signaling EC50 Normalized by CBLB502 (fold vs CBLB502)

CBLB502 mutant MIM2 (ligand) MRGSHHHHHHGMASMTGGQQMGRDLYDDDDKDPMAQVINTNSLSLLTQNNLNKSQSSLSSAIERLSSGLRINSAKDDAAGQAIANRFTSNIKGLTQASRNANDGISIAQTTEGALNEINNNLQRVRELSVQATNGTNSDSDLKSIQDEIQQRLEEIDRVSNQTQFNGVKVLSQDNQMKIQVGANDGETITIDLQKIDVKSLGLDGFNVNSPGISGGGGGILDSMGTLINEDAAAAKKSTANPLASIDSALSKVDAVRSSLGAIQNRFDSAITNLGNTVTALASAASRIEDADYATEVSNMSKAQILQQAGTSVLAQANQVPQNVLSLLR	1.2
